Molecular target: T1, human common cytokine receptor γ-chain (IL-2Rγ) (human, UniProt P31785 23-262, limits assumed)
T1 construct: Recombinant human IL-2Rγ protein, coated (ELISA) or amine-coupled to a CM5 chip (SPR); also called hu IL-2R; CD132
T1 sequence: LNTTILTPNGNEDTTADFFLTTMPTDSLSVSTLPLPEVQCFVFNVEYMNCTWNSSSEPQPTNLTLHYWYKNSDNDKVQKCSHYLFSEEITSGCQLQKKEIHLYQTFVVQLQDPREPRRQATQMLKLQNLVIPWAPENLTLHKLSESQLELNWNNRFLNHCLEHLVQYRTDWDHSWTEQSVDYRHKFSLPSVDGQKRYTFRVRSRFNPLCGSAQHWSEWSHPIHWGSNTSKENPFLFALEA
Test: P.E. off-rate SPR
reported.metric: koff (s⁻¹)
Report only the number, with the unit s⁻¹ understood.

Past entries and their recorded results:
binder | koff / s⁻¹
FJ1427_P035MP07H01 (VHH, tested as periplasmic extract; also called Clone nr) VHH: QVQLVESGGGLVQAGGSLRLFCATSGRTLSRYAMGWFRQAPGREREFVACDSWGGDTFYADSVKGRFTFSRDSAKNTVYLQMNSLQPEDTAVYYCAAAPTSFATTAYSSSNSYAYWGQGTQVTVSS | 0.00125
FJ1427_P035MP07E02 (VHH, tested as periplasmic extract; also called Clone nr) VHH: QVQLVESGGGLVQAGGSLRLSCAASGRALSRLAMGWFRQAPGKEREFVVASSWGDDTFYADSVKGRFTFSRDNAKNTVYLQMNSLQPGDTAVYYCAAAPTSFATTAYSSSNSYAYWGQGTQVTVSS | 0.00206
FJ1427_P035MP07H09 (VHH, tested as periplasmic extract; also called Clone nr) VHH: QVQLVESGGGLVQAGGSLRLSCAASGRTLSRYAMGWFRQAPGKEREFVAANSWGGDTYYTDSVEGRFTFSRDNAKNAVYLQMNSLQPEDTAVYYCAAAPTSFATTAYSSSNSYTYWGQGTQVTVSS | 0.00346

Then this binder:
Sample FJ1427_P035MP07C07 (VHH, tested as periplasmic extract; also called Clone nr; 627) VHH: QVQLVESGGGLVQAGGSLRLSCAASGRTLSRYAMGWFRQAPGKEREFVTANSWGGDTYYADSVQGRFTFSRDNAKNTVYLQMNSLQPEDTAVYYCAAAPTSFATTAYSSSNSYAYWGQGTQVTVSS ; koff observed: 0.0025
